test.details: Cytotoxicity against human HepG2(2.2.15) cells after 24 hrs by MTS assay
Format: cell-based
measurement.label: CC50 at 24 h (µM)

query.smiles	scale.unit	reading
O=C(CNC(=O)c1ccc(F)cc1)Nc1ccc(Cl)nc1Cl	µM	144

---

Tested on: Hepatitis B virus
test.details: Antiviral activity against HBV infected in human HepG2(2.2.15) cells assessed as inhibition of viral DNA level after 6 days by Southern blot analysis
Format: functional, cell-based
experimental.parameters: HepG2 2.2.15, 144 h
pIC50: −log10 of the molar value.

query.smiles	pIC50
O=C1OCc2c1cc1ccc3c(c1c2-c1ccc2c(c1)OCO2)OCO3	6.00
